B1: PSD2 (parent)
chain: PLMGETQERERVLTHFSRRYCQCN

Variants of: B1
ASSAY OVERVIEW: protein stability index of a GFP-peptide fusion (GPS, HEK-293T) (PSI 1-6); higher = more stable;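 also: lentivirally expressed fusions sorted by FACS into six bins by GFP to DsRed ratio, PSI derived from sequencing read proportions per bin multiplied by bin number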
MEASUREMENT PARAMETERS: c terminus: a fixed tail appended
Binary classification by protein stability index, with 3 as an inclusive lower bound for Condition met; all other cases are Condition not met.

Enquiry: Does the reported protein stability index for `Q7N` fall at or above the 3 mark?
Return: Condition not met

Enquiry: Does the reported protein stability index for `V12F` fall at or above the 3 mark?
Return: Condition met

Enquiry: Does the reported protein stability index for `R18H` fall at or above the 3 mark?
Return: Condition met

Enquiry: Does the reported protein stability index for `H15I` fall at or above the 3 mark?
Return: Condition not met

Enquiry: Does the reported protein stability index for `E8D` fall at or above the 3 mark?
Return: Condition met

Enquiry: Does the reported protein stability index for `C23R` fall at or above the 3 mark?
Return: Condition met

Enquiry: Does the reported protein stability index for `E10F` fall at or above the 3 mark?
Return: Condition not met

Enquiry: Does the reported protein stability index for `G4Q` fall at or above the 3 mark?
Return: Condition not met

Enquiry: Does the reported protein stability index for `C23S` fall at or above the 3 mark?
Return: Condition met

Enquiry: Does the reported protein stability index for `R18W` fall at or above the 3 mark?
Return: Condition not met

Enquiry: Does the reported protein stability index for `S17R` fall at or above the 3 mark?
Return: Condition not met

Enquiry: Does the reported protein stability index for `T6N` fall at or above the 3 mark?
Return: Condition not met

Enquiry: Does the reported protein stability index for `E5D` fall at or above the 3 mark?
Return: Condition not met

Enquiry: Does the reported protein stability index for `G4L` fall at or above the 3 mark?
Return: Condition not met

Enquiry: Does the reported protein stability index for `R19T` fall at or above the 3 mark?
Return: Condition met

Enquiry: Does the reported protein stability index for `G4T` fall at or above the 3 mark?
Return: Condition met

Enquiry: Does the reported protein stability index for `L13R` fall at or above the 3 mark?
Return: Condition met

Enquiry: Does the reported protein stability index for `L13A` fall at or above the 3 mark?
Return: Condition not met

Enquiry: Does the reported protein stability index for `R11E` fall at or above the 3 mark?
Return: Condition met

Enquiry: Does the reported protein stability index for `T6V` fall at or above the 3 mark?
Return: Condition not met

Enquiry: Does the reported protein stability index for `S17N` fall at or above the 3 mark?
Return: Condition met

Enquiry: Does the reported protein stability index for `H15A` fall at or above the 3 mark?
Return: Condition not met

Enquiry: Does the reported protein stability index for `T14L` fall at or above the 3 mark?
Return: Condition not met

Enquiry: Does the reported protein stability index for `V12G` fall at or above the 3 mark?
Return: Condition met

Enquiry: Does the reported protein stability index for `R11M` fall at or above the 3 mark?
Return: Condition not met
